target: baculovirus-expressed JAK2 kinase (Homo sapiens, UniProt O60674); assay: biochemical; settings: 0.2 μM ATP; read-out: JAK2 Potency
Sequence (O60674 whole entry): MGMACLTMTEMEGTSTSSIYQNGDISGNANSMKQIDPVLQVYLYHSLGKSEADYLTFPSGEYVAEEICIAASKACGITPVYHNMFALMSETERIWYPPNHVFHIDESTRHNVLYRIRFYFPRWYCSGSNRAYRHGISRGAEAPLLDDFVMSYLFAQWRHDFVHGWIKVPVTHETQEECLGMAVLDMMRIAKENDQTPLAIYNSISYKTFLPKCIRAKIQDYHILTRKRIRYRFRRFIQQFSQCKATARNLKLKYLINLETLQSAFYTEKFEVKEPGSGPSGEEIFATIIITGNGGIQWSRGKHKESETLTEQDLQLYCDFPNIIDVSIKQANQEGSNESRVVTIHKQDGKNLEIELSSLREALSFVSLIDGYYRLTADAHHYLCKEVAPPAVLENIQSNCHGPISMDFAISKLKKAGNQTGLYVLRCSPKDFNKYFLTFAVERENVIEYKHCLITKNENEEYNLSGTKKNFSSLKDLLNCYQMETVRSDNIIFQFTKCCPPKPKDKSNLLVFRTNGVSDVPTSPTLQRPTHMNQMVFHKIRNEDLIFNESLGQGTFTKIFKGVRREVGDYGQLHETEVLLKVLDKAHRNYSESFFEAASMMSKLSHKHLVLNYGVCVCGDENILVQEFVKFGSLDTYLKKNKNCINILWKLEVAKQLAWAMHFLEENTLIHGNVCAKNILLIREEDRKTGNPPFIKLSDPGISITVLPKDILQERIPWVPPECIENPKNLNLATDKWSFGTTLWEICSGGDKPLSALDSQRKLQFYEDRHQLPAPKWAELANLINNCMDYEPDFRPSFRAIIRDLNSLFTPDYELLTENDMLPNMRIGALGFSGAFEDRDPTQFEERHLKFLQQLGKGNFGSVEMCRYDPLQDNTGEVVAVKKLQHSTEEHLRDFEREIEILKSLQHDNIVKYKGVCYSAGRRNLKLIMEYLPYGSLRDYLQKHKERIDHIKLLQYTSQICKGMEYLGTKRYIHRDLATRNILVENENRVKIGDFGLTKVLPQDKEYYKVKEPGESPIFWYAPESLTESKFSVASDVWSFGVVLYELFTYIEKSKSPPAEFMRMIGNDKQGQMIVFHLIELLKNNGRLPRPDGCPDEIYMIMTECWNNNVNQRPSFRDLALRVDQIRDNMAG
pIC50: −log10 of the molar value. Structures can show the parent of a compound that is named as a salt.
endpoint label: pIC50

Example compounds with recorded pIC50:
Using known records, supply pIC50 for Cc1ccc(-c2nc3c(N[C@H]4[C@@H](C(N)=O)[C@@H]5C=C[C@H]4C5)c(Br)cnc3[nH]2)o1 [Compound CX] > 7.00

Specify pIC50 for CN(C)c1cccc(-c2nc3c(N[C@H]4[C@@H](C(N)=O)[C@@H]5C=C[C@H]4C5)c(Cl)cnc3[nH]2)c1 [Compound XII] and stop. > 7.00

Give the reported value of pIC50 for this record: Cc1cc(N2CCOCC2)ccc1-c1nc2c(N[C@H]3[C@@H](C(N)=O)[C@@H]4C=C[C@H]3C4)c(Br)cnc2[nH]1 [Compound CXXX] > 7.00

Find the measured pIC50 of NC(=O)[C@@H]1[C@H](Nc2c(Br)cnc3[nH]c(-c4cncnc4)nc23)[C@H]2C=C[C@@H]1C2 [Compound CVII] and report it. > 7.00

Output pIC50 of NC(=O)[C@@H]1[C@H](Nc2c(Cl)cnc3[nH]c(-c4ccccc4F)nc23)[C@H]2C=C[C@@H]1C2 [Compound CXXVII] > 7.00

Quick one: give measured pIC50 for COc1ccc(-c2nc3c(N[C@H]4[C@@H](C(N)=O)[C@@H]5C=C[C@H]4C5)c(Cl)cnc3[nH]2)c(C2CCNCC2)c1 [Compound XXX] 6.00 to 7.00

Would you be so kind as to report pIC50 for each listed record?
1. Cc1cc(N2CCOCC2)ccc1-c1nc2c(N[C@H]3[C@@H](C(N)=O)[C@@H]4C=C[C@H]3C4)c(Cl)cnc2[nH]1 [Compound CXXI]
2. COc1cc(N2CCOCC2)ccc1-c1nc2c(N3C[C@@H]4C[C@H]3CN4C(=O)OC(C)(C)C)c(Cl)cnc2[nH]1 [Compound XXXVI]
3. CN1CCC(c2nc3c(N[C@H]4[C@@H](C(N)=O)[C@@H]5C=C[C@H]4C5)c(Cl)cnc3[nH]2)CC1 [Compound CL]
4. COc1cc(C(=O)N2CCOCC2)ccc1-c1nc2c(N[C@H]3[C@@H](C(N)=O)[C@@H]4C=C[C@H]3C4)c(Cl)cnc2[nH]1 [Compound LXIII]
5. CN(C)C(=O)[C@@H]1[C@H](Nc2c(Cl)cnc3[nH]c(-c4sc(N5CCOCC5)nc4Cl)nc23)[C@H]2C=C[C@@H]1C2 [Compound CLXII]
6. NC(=O)[C@@H]1[C@H](Nc2c(Cl)cnc3[nH]c(-c4cccc(F)c4)nc23)[C@H]2C=C[C@@H]1C2 [Compound CXXVIII]
7. COc1cc(CN2CCN(C)CC2)ccc1-c1nc2c(N[C@@H]3CCCC[C@H]3NS(C)(=O)=O)c(Cl)cnc2[nH]1 [Compound LXXI]

["> 7.00", "5.00 to 6.00", "< 5.00", "> 7.00", "> 7.00", "> 7.00", "5.00 to 6.00"]

I'm hoping you can list pIC50 for every compound here, please.
1. NC(=O)[C@@H]1[C@H](Nc2c(Cl)cnc3[nH]c(-c4cn5c(n4)CCCC5)nc23)[C@H]2C=C[C@@H]1C2 [Compound CCXIII]
2. NC(=O)[C@@H]1[C@H](Nc2c(Br)cnc3[nH]c(-c4ccc(N5CCOCC5)nc4)nc23)[C@H]2C=C[C@@H]1C2 [Compound CXII]
3. NC(=O)[C@@H]1[C@H](Nc2c(Br)cnc3[nH]c(-c4ccc(Cl)cc4)nc23)[C@H]2C=C[C@@H]1C2 [Compound CXLIII]
4. NC(=O)[C@@H]1[C@H](Nc2c(Cl)cnc3[nH]c(-c4ccc(C(=O)N5CCNC(C(=O)O)C5)cc4)nc23)[C@H]2C=C[C@@H]1C2 (stereo partly shown) [Compound CCXXVI]
5. CC(C)(C)OC(=O)N1CCCC(c2nc3c(N[C@H]4[C@@H](C(N)=O)[C@@H]5C=C[C@H]4C5)c(Br)cnc3[nH]2)C1 (stereo partly shown) [Compound LXXXII]
6. COc1ccccc1Nc1nc2c(N[C@H]3[C@@H](C(N)=O)[C@@H]4C=C[C@H]3C4)c(Cl)cnc2[nH]1 [Compound LXVIII]
7. CN1CCN(c2ccc(-c3nc4c(N[C@H]5[C@@H](C(N)=O)[C@@H]6C=C[C@H]5C6)c(Cl)cnc4[nH]3)cc2)CC1 [Compound X, trifluoroacetic acid salt]
8. NC(=O)[C@@H]1[C@H](Nc2c(Br)cnc3[nH]c(-c4ccc(C(F)(F)F)nc4)nc23)[C@H]2C=C[C@@H]1C2 [Compound CXXXIX]

["> 7.00", "> 7.00", "> 7.00", "> 7.00", "6.00 to 7.00", "> 7.00", "> 7.00", "> 7.00"]

###

endpoint label: melting point

Consider the reported melting point for these compounds:
Report measured melting point; entry is "Cn1cc(-c2nc3c(N[C@H]4[C@@H](C(N)=O)[C@@H]5C=C[C@H]4C5)ccnc3[nH]2)cn1" 236 to 238 °C

Could you please provide reported melting point for "NC(=O)[C@@H]1[C@H](Nc2c(Br)cnc3[nH]c(-c4cccnc4N4CCCC4)nc23)[C@H]2C=C[C@@H]1C2" ? Thanks! 190 °C

Check the records and state melting point for "COc1cc(C2CCN(C[C@@H](O)CO)CC2)ccc1-c1nc2c(N[C@H]3[C@@H](C(N)=O)[C@@H]4C=C[C@H]3C4)c(Cl)cnc2[nH]1" 209 to 211 °C

Each of the following entries comes with a recorded value; kindly state melting point for each.
1. COc1ccncc1-c1nc2c(N[C@H]3[C@@H](C(N)=O)[C@@H]4C=C[C@H]3C4)c(Br)cnc2[nH]1
2. CN(C)c1cccc(-c2nc3c(N[C@H]4[C@@H](C(N)=O)[C@@H]5C=C[C@H]4C5)ccnc3[nH]2)c1
3. NC(=O)[C@@H]1[C@H](Nc2ccnc3[nH]c(-c4ccc(CN5CCOCC5)cc4)nc23)[C@H]2C=C[C@@H]1C2

["160 °C", "200 to 204 °C", "240 to 244 °C"]

###

Target: baculovirus-expressed JAK2 kinase (Homo sapiens, UniProt O60674)
Assay: biochemical
Conditions: 0.2 μM ATP; read-out: JAK2 Potency
Protocol: Compounds were tested for their ability to inhibit the kinase activity of baculovirus-expressed JAK2 kinase using the time-resolved fluorescence (TRF) detection system. […] Inhibition data were analyzed using ActivityBase (IDBS, Guilford, UK). IC50 values were calculated by plotting percent inhibition versus log10 of the concentration of compound and fitting to the nonlinear regression sigmoidal dose-response (variable slope) equation in XLFit (IDBS, Guilford, UK).
pIC50: −log10 of the molar value.
endpoint label: pIC50

Below, each entry is followed by its recorded pIC50 result.
Provide pIC50 value for the following compound: "NC(=O)[C@@H]1[C@H](Nc2c(Cl)cnc3[nH]c(-c4ccc(N5CCOCC5)cc4Cl)nc23)[C@H]2C=C[C@@H]1C2" > 7.00

Note down pIC50 recorded for "COc1c(CN2CCOCC2)cccc1-c1nc2c(N[C@H]3[C@@H](C(N)=O)[C@@H]4C=C[C@H]3C4)c(Cl)cnc2[nH]1" > 7.00

Output pIC50 of "COc1ccncc1-c1nc2c(N[C@H]3[C@@H](C(N)=O)[C@@H]4C=C[C@H]3C4)c(Cl)cnc2[nH]1" 6.00 to 7.00

Tell me pIC50 reported for "NC(=O)[C@@H]1[C@H](Nc2c(Cl)cnc3[nH]c(-c4ccc(OCC(=O)O)cc4)nc23)[C@H]2C=C[C@@H]1C2" > 7.00

Required: pIC50, one value per compound below.
1. NC(=O)[C@@H]1[C@H](Nc2c(Br)cnc3[nH]c(-c4ccccc4-n4cccn4)nc23)[C@H]2C=C[C@@H]1C2
2. CN1CCN(CCOc2ccc(-c3nc4c(N[C@H]5[C@@H](C(N)=O)[C@@H]6C=C[C@H]5C6)c(Cl)cnc4[nH]3)cc2)CC1
3. C[C@@H](O)CN1CCC(n2cc(-c3nc4c(N[C@H]5[C@@H](C(N)=O)[C@@H]6C=C[C@H]5C6)c(Cl)cnc4[nH]3)cn2)CC1

1. 6.00 to 7.00
2. > 7.00
3. > 7.00

###

For each entry below, report its pIC50 value.
molecular target: baculovirus-expressed ALK (Homo sapiens); test: ALK kinase inhibition, TRF/ELISA; assay type: biochemical; conditions: read-out: ALK Potency
Sequence (Q9UM73 19-1620): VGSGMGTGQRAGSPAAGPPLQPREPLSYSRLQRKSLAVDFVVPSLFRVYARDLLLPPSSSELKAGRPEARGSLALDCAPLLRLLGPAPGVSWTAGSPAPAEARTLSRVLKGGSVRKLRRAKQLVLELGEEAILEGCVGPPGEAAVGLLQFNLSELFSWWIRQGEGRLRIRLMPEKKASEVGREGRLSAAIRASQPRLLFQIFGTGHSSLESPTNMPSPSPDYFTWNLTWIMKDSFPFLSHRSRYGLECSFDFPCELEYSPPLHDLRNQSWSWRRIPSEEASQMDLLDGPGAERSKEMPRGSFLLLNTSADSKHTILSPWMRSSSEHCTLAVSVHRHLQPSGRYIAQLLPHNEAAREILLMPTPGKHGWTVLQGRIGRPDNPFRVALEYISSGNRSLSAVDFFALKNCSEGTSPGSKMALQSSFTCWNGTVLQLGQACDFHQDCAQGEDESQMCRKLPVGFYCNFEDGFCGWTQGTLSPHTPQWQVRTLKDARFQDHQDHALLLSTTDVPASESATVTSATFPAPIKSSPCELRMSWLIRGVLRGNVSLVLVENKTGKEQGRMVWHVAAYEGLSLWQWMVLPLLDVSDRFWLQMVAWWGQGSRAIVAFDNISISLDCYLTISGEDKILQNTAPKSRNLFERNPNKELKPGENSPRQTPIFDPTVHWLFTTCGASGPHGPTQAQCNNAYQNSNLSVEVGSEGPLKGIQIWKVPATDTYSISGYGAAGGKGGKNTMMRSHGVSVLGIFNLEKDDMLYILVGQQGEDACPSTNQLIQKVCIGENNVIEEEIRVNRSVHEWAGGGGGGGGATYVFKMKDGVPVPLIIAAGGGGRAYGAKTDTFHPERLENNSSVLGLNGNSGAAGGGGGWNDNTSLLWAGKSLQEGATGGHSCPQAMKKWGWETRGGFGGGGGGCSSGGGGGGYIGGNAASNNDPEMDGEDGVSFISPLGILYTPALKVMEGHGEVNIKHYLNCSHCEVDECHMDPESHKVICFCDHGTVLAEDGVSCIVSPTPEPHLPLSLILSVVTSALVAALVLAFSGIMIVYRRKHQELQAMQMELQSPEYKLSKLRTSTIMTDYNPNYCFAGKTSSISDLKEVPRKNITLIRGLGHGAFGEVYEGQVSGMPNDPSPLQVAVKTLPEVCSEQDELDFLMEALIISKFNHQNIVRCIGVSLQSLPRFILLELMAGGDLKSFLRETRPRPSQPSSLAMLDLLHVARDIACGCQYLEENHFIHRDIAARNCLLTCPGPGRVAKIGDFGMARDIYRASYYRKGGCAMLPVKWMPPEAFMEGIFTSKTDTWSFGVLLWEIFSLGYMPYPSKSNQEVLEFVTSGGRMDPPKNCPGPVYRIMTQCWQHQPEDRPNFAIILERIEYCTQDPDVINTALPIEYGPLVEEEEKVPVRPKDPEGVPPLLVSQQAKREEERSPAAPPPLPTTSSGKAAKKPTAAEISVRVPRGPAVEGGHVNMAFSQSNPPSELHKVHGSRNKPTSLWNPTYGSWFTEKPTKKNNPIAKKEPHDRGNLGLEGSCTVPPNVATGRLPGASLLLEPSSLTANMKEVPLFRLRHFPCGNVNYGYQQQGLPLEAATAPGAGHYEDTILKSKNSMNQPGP
pIC50: −log10 of the molar value.

Provide measured pIC50 value, entry: COc1cc(CN2CC[C@@H](O)C2)ccc1-c1nc2c(N[C@H]3[C@@H](C(N)=O)[C@@H]4C=C[C@H]3C4)c(Cl)cnc2[nH]1 [Compound XLVII] > 7.00

Note pIC50 for the compound shown: NC(=O)[C@@H]1[C@H](Nc2ccnc3[nH]c(-c4ccc(N5CCOCC5)cc4)nc23)[C@H]2C=C[C@@H]1C2 [Compound LXXXIX] < 5.00

Provide one value: measured pIC50 of COc1cc(N2CCOCC2)ccc1-c1nc2c(N[C@@H]3CCCC[C@H]3NS(C)(=O)=O)c(Cl)cnc2[nH]1 [Compound LXXII] > 7.00

Output measured pIC50 for this item: NC(=O)[C@@H]1[C@H](Nc2c(Cl)cnc3[nH]c(-c4cn5c(n4)CCCC5)nc23)[C@H]2C=C[C@@H]1C2 [Compound CCXIII] 6.00 to 7.00

State its pIC50 for this compound: NC(=O)[C@@H]1[C@H](Nc2c(Cl)cnc3[nH]c(-c4cccc(C(=O)NC(CO)C(=O)O)c4)nc23)[C@H]2C=C[C@@H]1C2 (stereo partly shown) [Compound CCXXIX] 5.00 to 6.00

Batch of 4 compounds: report pIC50 for each.
1. Cc1ncc(-c2nc3c(N[C@H]4[C@@H](C(N)=O)[C@@H]5C=C[C@H]4C5)c(Cl)cnc3[nH]2)s1 [Compound CCVIII]
2. NC(=O)[C@@H]1[C@H](Nc2c(Cl)cnc3[nH]c(-c4cccc(-n5cccn5)c4)nc23)[C@H]2C=C[C@@H]1C2 [Compound CXXV]
3. CC(O)CN1CCC(Oc2cccc(-c3nc4c(N[C@H]5[C@@H](C(N)=O)[C@@H]6C=C[C@H]5C6)c(Cl)cnc4[nH]3)c2)CC1 (stereo partly shown) [Compound CCLI]
4. NC(=O)[C@@H]1[C@H](Nc2c(Br)cnc3[nH]c(-c4ccc5c(c4)CCC4(CCNCC4)O5)nc23)[C@H]2C=C[C@@H]1C2 [Compound CXIV]

["6.00 to 7.00", "5.00 to 6.00", "> 7.00", "> 7.00"]

Consider the following items and state reported pIC50 for each.
1. COc1cc(N(C)C)ccc1-c1nc2c(N[C@H]3[C@@H](C(N)=O)[C@@H]4C=C[C@H]3C4)c(Br)cnc2[nH]1 [Compound LXXXIV]
2. COc1cc(CN2CCN(C)CC2)ccc1-c1nc2c(N[C@@H]3CCCC[C@H]3NS(C)(=O)=O)c(Cl)cnc2[nH]1 [Compound LXXI]
3. NC(=O)[C@@H]1[C@H](Nc2c(Cl)cnc3[nH]c(-c4cccc(C(=O)O)c4)nc23)[C@H]2C=C[C@@H]1C2 [Compound CCXVII]
4. Cc1nn(C)c(C)c1-c1nc2c(N[C@H]3[C@@H](C(N)=O)[C@@H]4C=C[C@H]3C4)c(Br)cnc2[nH]1 [Compound CLII]

1: > 7.00; 2: > 7.00; 3: 5.00 to 6.00; 4: > 7.00

The measured values listed here are drawn from patent US9238656B2.
